# Tested on: Hepatitis B virus
# TEST_DETAILS: Antiviral activity against HBV assessed as inhibition of viral e-antigen production by enzyme immunoassay
# Type: functional, organism-based
pIC50: −log10 of the molar value.
MEASURE_NAME: pIC50

compound=CCOC(=O)c1cc2c(CN3CCOCC3)c(O)c(OC)cc2nc1CSc1ccc(F)c(F)c1 measure_name=pIC50 reported_measurement=4.96
compound="CCOC(=O)c1cc2c(CN3CCCC3)c(O)c(OC)cc2nc1C[S+]([O-])c1ccc(F)cc1 (stereo not drawn)" measure_name=pIC50 reported_measurement=4.68
compound=CCOC(=O)c1cc2c(Cn3ccnc3)c(O)c(OC)cc2nc1CSc1ccc(F)c(F)c1 measure_name=pIC50 reported_measurement=4.79
